Where do the numbers come from? From the supplement of paper PMC10567573.

B1: PLD5 (parent)
chain: KRTYWPDLDAKIREALVLRSVRVR

# Variants of: B1
# experiment summary: protein stability index of a GFP-peptide fusion (GPS, HEK-293T) (PSI 1-6); higher = more stable;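 note: lentivirally expressed fusions sorted by FACS into six bins by GFP to DsRed ratio, PSI derived from sequencing read proportions per bin multiplied by bin number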
# test context: c terminus: a fixed tail appended
Would you mind labelling by protein stability index? At or over 2 is fulfilled, under is not fulfilled.

INSERT INTO assay_data (mutation_descriptor, class_label) VALUES
  ('Y4Q', 'not fulfilled'),
  ('K11P', 'fulfilled'),
  ('V21F', 'fulfilled'),
  ('R24F', 'fulfilled'),
  ('E14G', 'fulfilled'),
  ('R22G', 'not fulfilled'),
  ('L16V', 'fulfilled'),
  ('P6K', 'not fulfilled'),
  ('L18I', 'not fulfilled'),
  ('W5C', 'not fulfilled'),
  ('I12Q', 'fulfilled'),
  ('P6F', 'fulfilled'),
  ('R13S', 'not fulfilled'),
  ('A15P', 'not fulfilled'),
  ('V21H', 'fulfilled'),
  ('K11M', 'not fulfilled'),
  ('I12L', 'not fulfilled'),
  ('L16H', 'fulfilled'),
  ('S20N', 'not fulfilled'),
  ('V23N', 'fulfilled'),
  ('L8T', 'fulfilled'),
  ('D9N', 'not fulfilled'),
  ('T3S', 'not fulfilled'),
  ('V17R', 'not fulfilled'),
  ('V21A', 'not fulfilled'),
  ('D7V', 'not fulfilled'),
  ('R2P', 'fulfilled'),
  ('A15V', 'not fulfilled'),
  ('Y4F', 'not fulfilled'),
  ('I12V', 'fulfilled'),
  ('R13H', 'fulfilled'),
  ('R24K', 'not fulfilled'),
  ('W5D', 'not fulfilled'),
  ('V23Y', 'not fulfilled'),
  ('P6Q', 'fulfilled'),
  ('D7P', 'fulfilled'),
  ('K1N', 'fulfilled'),
  ('Y4T', 'not fulfilled'),
  ('A10H', 'fulfilled'),
  ('V21Y', 'fulfilled'),
  ('I12H', 'fulfilled'),
  ('R24D', 'fulfilled'),
  ('L16N', 'fulfilled'),
  ('P6C', 'not fulfilled'),
  ('R13Q', 'not fulfilled'),
  ('W5A', 'not fulfilled'),
  ('T3L', 'fulfilled'),
  ('R2E', 'fulfilled'),
  ('D9G', 'fulfilled'),
  ('I12C', 'fulfilled'),
  ('A10Y', 'fulfilled'),
  ('R24N', 'not fulfilled'),
  ('Y4E', 'fulfilled'),
  ('R22H', 'not fulfilled'),
  ('V23A', 'not fulfilled'),
  ('D7R', 'fulfilled'),
  ('K11A', 'not fulfilled'),
  ('K1R', 'not fulfilled'),
  ('L16Y', 'fulfilled'),
  ('D7M', 'fulfilled'),
  ('W5V', 'fulfilled');
